Target or system HCT-15; recorded quantity GI50.
Provide only the numeric value, understood in µM.

Prompt: Which GI50 value belongs to Cc1cc(C)n(-c2nc(-n3nc(C)cc3C)nc(-n3nc(C)cc3C)n2)n1 ?
Response: 83.8

Prompt: Report GI50 for COC(=O)c1cc(C)n(CN(Cn2nc(C(=O)OC)cc2C)c2ccccc2)n1 please.
Response: 18

---

Test system: NCI-H226
assay_summary: NCI tumour cell line growth inhibition, 48 h
Activity calls are given as the source filed them. Cut-off read from the data, not from the text of the source: active = GI50 up to about 1.1 µM and inactive = higher.
Entry note: the call must match one of T = active, F = inactive

Prompt: Test call for this compound, please: Cc1ccc(NC(=O)CCC(=O)C2Cc3ccccc3C2=O)cc1C (stereo not given)
Response: F

Prompt: Hey, what did the test say about O=C(Nc1ccc2ccccc2c1)c1cc2cc(CCl)ccc2oc1=O ?
Response: F

Prompt: For CCCCCCCCCCCCCC[S+](C)C , which call appears in the assay record?
Response: F

Prompt: # fetch the recorded call for COc1ccc(/C(Cl)=C(\CNc2ccccn2)c2ccccc2)cc1OC here
Response: F

Prompt: Hi, sorry to bother you, what did the test record for NC(CCc1ccccc1)(C(=O)O)c1ccccc1 (stereo not given) ?
Response: F

Prompt: Record lookup: outcome of this test for CN(C)CCCNc1ccc2nnn3c4ccc(O)cc4c(=O)c1c23 ?
Response: F

Prompt: Hi, sorry to bother you, what did the test record for CCc1cc2c(cc1O)CC[C@@H]1[C@@H]2CC[C@]2(C)[C@@H](O)CC[C@@H]12 ?
Response: F

Prompt: Query: recorded result category for CCCC(=O)Nc1cc(/C=C/C(=O)N2CC(CCl)c3c2cc(OCc2ccccc2)c2[nH]cc(C)c32)n(C)c1 (stereo not given) in this test
Response: T

Prompt: Tell me the assay call for Cc1c(NC(=O)CSC(=S)N(C)C)c(=O)n(-c2ccccc2)n1C please.
Response: F

Prompt: Please indicate how the test categorized COc1ccc2c(c1O)C13CCN(C)C(C2)C1CCC1(C3)OCCO1 (stereo not given) .
Response: F

Prompt: Could you check what this test reported for COc1cccc2c1C(=O)c1c(O)c3c(c(O)c1C2=O)C[C@@](O)(/C(C)=N/NC(=O)c1ccccc1)C[C@@H]3OC1CC(N)C(O)C(C)O1 (stereo not given in full) ?
Response: T

Prompt: Which outcome was assigned to N#C/C(=N/Nc1[nH]cnc1C(N)=O)C(=O)Nc1ccccc1 in this test?
Response: F

Prompt: Per the assay record, what outcome was assigned to COC(=O)C1OC(O[C@H]2CC[C@]3(C)[C@H]4CC=C5[C@@H]6CC(C)(C)CC[C@]6(C(=O)OC6OCC(O)C(O)C6OC6OC(C)C(OC7OCC(O)C(O)C7O)C(OC7OCC(O)(CO)C7O)C6O)[C@H](O)C[C@@]5(C)[C@]4(C)CC[C@H]3C2(C)C)C(O)C(O)C1O (stereo not given in full) ?
Response: F

Prompt: Outcome logged for Cc1ccc(S(=O)(=O)N2CCCN(S(=O)(=O)c3ccc(C)cc3)CCN(S(=O)(=O)c3ccc(C)cc3)CCCSCC2)cc1 in this assay:
Response: F

Prompt: // return assay outcome for Cc1csc2nc(-c3ccc([N+](=O)[O-])cc3)c(/C=N/N=C(N)N)n12
Response: F

src = ChEMBL document CHEMBL1201862
